Test: qHTS Assay for Lipid Storage Modulators (AID 1519)
Settings: Drosophila S3 cells, BODIPY lipid droplet/cell ratio, laser cytometry; measured here: lipid channel max response; cells loaded with oleic acid
Results filed as inconclusive are left out.
Some molecules, each annotated with its measured max response.

# molecule, unitTag, max response
data = [
    ("Cc1cccc(C)c1OCC(N)C(C)C (configuration not stated)", "%", 59.8),
    ("CC[C@@H]1Cc2cc(O)ccc2C2=C1c1ccc(O)cc1C[C@H]2CC", "%", -25.3),
    ("NCCCNCCCCNCCCN", "%", 13.5),
    ("CSC(N)=NCCC[C@H](N)C(=O)O", "%", 26.3),
    ("O=[N+]([O-])c1cccc2cn[nH]c12", "%", 36.8),
    ("O=C(O)CCC(=O)N1CCCC1C(=O)O (configuration not stated)", "%", 27.9),
    ("CC(=O)N[C@@H](Cc1c[nH]c2ccccc12)C(=O)OCc1cc(C(F)(F)F)cc(C(F)(F)F)c1", "%", -17.3),
    ("N[C@@H](CCC(=O)N[C@H](CSN=O)C(=O)NCC(=O)O)C(=O)O", "%", -19.6),
    ("Cc1cc2c(cc1Cl)N(C(=O)Nc1ccnc3ccccc13)CC2", "%", 64),
    ("Oc1ccc(Cn2cc[nH]c2=S)cc1", "%", -29.9),
    ("Cn1c(=O)c2c(nc(/C=C/c3cccc(Cl)c3)n2C)n(C)c1=O", "%", -62),
    ("C#CCn1c(=O)c2c(ncn2C)n(C)c1=O", "%", -10.7),
]

* * *

Molecular target: ATPase family AAA domain-containing protein 5 (Homo sapiens) (UniProt Q96QE3)
Sequence (Q96QE3 whole entry, looked up, the tested form may be a part): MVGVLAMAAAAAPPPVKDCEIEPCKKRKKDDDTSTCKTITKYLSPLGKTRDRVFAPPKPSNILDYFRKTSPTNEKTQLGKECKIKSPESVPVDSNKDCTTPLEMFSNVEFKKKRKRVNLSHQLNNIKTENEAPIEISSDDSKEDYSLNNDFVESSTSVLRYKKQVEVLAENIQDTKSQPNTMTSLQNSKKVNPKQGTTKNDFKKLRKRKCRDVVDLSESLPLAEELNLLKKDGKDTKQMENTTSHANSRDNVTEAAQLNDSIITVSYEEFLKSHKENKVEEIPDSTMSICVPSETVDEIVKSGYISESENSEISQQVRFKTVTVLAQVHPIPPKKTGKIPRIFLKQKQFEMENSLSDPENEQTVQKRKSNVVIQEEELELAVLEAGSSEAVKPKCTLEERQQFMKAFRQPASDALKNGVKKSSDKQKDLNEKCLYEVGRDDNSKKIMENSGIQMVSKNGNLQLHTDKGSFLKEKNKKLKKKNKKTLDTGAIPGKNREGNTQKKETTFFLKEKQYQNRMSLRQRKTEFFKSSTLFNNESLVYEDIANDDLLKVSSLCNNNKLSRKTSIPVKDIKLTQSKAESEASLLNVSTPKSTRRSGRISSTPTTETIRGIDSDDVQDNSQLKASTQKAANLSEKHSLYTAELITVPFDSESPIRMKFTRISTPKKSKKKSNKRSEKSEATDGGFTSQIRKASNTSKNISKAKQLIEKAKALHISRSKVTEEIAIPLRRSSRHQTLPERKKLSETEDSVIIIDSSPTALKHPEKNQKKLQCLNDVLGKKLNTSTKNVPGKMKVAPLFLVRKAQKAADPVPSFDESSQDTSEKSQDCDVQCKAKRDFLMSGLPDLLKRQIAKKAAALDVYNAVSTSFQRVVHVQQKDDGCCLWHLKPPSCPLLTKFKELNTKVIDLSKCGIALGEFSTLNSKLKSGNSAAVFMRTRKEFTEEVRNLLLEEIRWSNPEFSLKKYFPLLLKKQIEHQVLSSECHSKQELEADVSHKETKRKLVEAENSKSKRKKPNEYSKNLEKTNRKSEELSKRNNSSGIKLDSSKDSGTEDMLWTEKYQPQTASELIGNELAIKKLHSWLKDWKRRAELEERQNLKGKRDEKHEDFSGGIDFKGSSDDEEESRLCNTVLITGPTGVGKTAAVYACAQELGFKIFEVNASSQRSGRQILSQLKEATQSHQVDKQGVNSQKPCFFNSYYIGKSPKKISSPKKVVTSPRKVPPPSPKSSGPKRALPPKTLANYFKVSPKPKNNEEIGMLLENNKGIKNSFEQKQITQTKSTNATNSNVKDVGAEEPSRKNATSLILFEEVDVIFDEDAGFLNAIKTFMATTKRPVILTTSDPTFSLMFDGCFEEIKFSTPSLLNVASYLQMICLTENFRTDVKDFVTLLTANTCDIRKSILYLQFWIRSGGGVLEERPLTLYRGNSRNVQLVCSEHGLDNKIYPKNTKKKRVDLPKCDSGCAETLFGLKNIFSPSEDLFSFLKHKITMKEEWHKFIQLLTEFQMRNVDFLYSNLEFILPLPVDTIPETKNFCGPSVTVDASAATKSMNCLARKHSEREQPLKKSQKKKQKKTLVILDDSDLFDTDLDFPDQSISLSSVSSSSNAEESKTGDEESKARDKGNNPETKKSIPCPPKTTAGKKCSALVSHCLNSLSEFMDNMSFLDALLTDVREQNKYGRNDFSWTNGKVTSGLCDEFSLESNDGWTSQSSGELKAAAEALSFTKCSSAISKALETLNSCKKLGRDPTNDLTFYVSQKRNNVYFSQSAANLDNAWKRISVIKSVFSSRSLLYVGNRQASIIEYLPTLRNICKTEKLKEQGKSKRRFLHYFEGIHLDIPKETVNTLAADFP
Test: Validation screen for small molecules that inhibit ELG1-dependent DNA repair in human embryonic kidney (HEK293T) cells expressing luciferase-tagged ELG1 (AID 493107); also: nearly all actives have a fitted effect of over 70% in size
Settings: HEK293T ELG1-luciferase level, luminescence, 5-fluorouridine co-treatment, 16 h; series mostly up to 46.1 µM
Inconclusive results are not listed. Active and inactive are the calls of the source. Calls follow the shape of the dose curve; as a rule, active = well fitted inhibition curve with a large enough effect; inconclusive = small, poorly fitted or top-dose-only effect, or effect the other way; inactive = flat fitted curve, though single readings scatter.
Labels: active, inactive

# compound, classLabel
data = [
    ("CN1C2CCC1CC(OC(c1ccccc1)c1ccccc1)C2 (configuration not stated)", "inactive"),
    ("O=C(O)Cc1ccc(O)c(O)c1", "inactive"),
    ("CCCCCCCCCCCCCCSCC(=O)O", "inactive"),
    ("NCCS(=O)O", "inactive"),
    ("CCCCCC[C@@H]([C@@H](C)O)n1cnc2c(N)ncnc21", "inactive"),
    ("N[C@H](C(=O)O)c1cc(O)cc(O)c1", "inactive"),
    ("CCCC[C@@]1(C2CCCC2)Cc2cc(OCC(=O)O)c(Cl)c(Cl)c2C1=O", "inactive"),
    ("CC1C(=O)N(C)C(=O)c2nc[nH]c21 (configuration not stated)", "inactive"),
    ("NCCCCN=C(N)N", "inactive"),
    ("N[C@H]1CONC1=O", "inactive"),
    ("O=C(O)C1CN(CCCP(=O)(O)O)CCN1 (configuration not stated)", "inactive"),
    ("CC(=O)SC1CC2=CC(=O)CC[C@]2(C)C2CC[C@@]3(C)C(CC[C@@]34CCC(=O)O4)C12 (some centres not stated)", "active"),
    ("NC(=O)CNCCC(c1ccccc1)c1ccccc1", "inactive"),
    ("CC(=O)C(C)=O", "inactive"),
    ("CC(=O)O[C@H]1CC2(C)[C@@H](C[C@@H](O)[C@H]3[C@@]4(C)CC[C@@H](O)[C@@H](C)[C@@H]4CC[C@@]32C)C1=C(CCC=C(C)C)C(=O)O (some centres not stated)", "inactive"),
    ("CSC(N)=NCCC[C@H](N)C(=O)O", "inactive"),
    ("c1ccc2nc(C3=NCCN3)ccc2c1", "inactive"),
    ("C=CC[C@H](N)C(=O)O", "inactive"),
    ("COc1ccc(-c2ccc(N)[n+](CCCC(=O)O)n2)cc1", "inactive"),
    ("CCCCCCCCCCCCCCC[C@H](O)[C@H](N)CO", "inactive"),
    ("CC(C)NC[C@H](O)COc1cccc2ccccc12", "inactive"),
    ("OCC1NCC(O)C(O)C1O (configuration not stated)", "inactive"),
    ("CC(=O)NCCc1c[nH]c2ccc(O)cc12", "inactive"),
    ("NC(=O)c1ccccc1", "inactive"),
    ("CCCc1c(-c2ccc(O)cc2)nn(-c2ccc(O)cc2)c1-c1ccc(O)cc1", "inactive"),
    ("CC(=O)[C@H]1CCC2C3CC=C4C[C@@H](OS(=O)(=O)O)CC[C@]4(C)C3CC[C@@]21C (some centres not stated)", "inactive"),
    ("NCCCCN", "inactive"),
]

* * *

Assay: qHTS for differential inhibitors of proliferation of Plasmodium falciparum line HB3 (AID 1886);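 also: parasites grown with compound for 72 h before SYBR Green readout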
Conditions: Plasmodium falciparum HB3 proliferation inhibition; series mostly up to 28.7 µM
Records with an inconclusive call do not appear. Activity calls are given as the source filed them. Calls follow the shape of the dose curve; as a rule, active = well fitted curve in the direction sought with a large enough effect; inconclusive = small, poorly fitted or top-dose-only effect, or another doubt; inactive = no such curve, though single readings can be large or run the other way.
Labels: label 1 (active), label 0 (inactive)

# compound, classLabel
records = [
    ("CCCCCCCCCCCCCCSCC(=O)O", "label 0"),
    ("COc1cc(N)c(Cl)cc1C(=O)OCCN1CCCCC1", "label 0"),
    ("NC(=O)CNCCC(c1ccccc1)c1ccccc1", "label 0"),
    ("CN1C2CCC1CC(OC(c1ccccc1)c1ccccc1)C2 (stereo not drawn)", "label 1"),
    ("C=CCN1CCc2cc(O)c(O)cc2C(c2ccccc2)C1 (stereo not drawn)", "label 1"),
    ("CSC(N)=NCCC[C@H](N)C(=O)O", "label 0"),
    ("N=C(N)SCCc1cnc[nH]1", "label 0"),
    ("N[C@H](C(=O)O)[C@H](O)C(=O)O", "label 0"),
    ("Nc1ccc(CCNc2ncnc3c2ncn3C2OC(CO)C(O)C2O)cc1 (stereo not drawn)", "label 0"),
    ("CC1CNCCN1S(=O)(=O)c1cccc2cnccc12 (stereo not drawn)", "label 0"),
    ("N#CC(=C(\\N)Sc1ccccc1N)/C(C#N)=C(/N)Sc1ccccc1N", "label 1"),
    ("CC(N)=O", "label 0"),
    ("O[Si](CCCN1CCCCC1)(c1ccc(F)cc1)C1CCCCC1 (stereo not drawn)", "label 1"),
]

* * *

Target: Lysine-specific demethylase 5B (Homo sapiens) (UniProt Q9UGL1)
Sequence (Q9UGL1 whole entry, looked up): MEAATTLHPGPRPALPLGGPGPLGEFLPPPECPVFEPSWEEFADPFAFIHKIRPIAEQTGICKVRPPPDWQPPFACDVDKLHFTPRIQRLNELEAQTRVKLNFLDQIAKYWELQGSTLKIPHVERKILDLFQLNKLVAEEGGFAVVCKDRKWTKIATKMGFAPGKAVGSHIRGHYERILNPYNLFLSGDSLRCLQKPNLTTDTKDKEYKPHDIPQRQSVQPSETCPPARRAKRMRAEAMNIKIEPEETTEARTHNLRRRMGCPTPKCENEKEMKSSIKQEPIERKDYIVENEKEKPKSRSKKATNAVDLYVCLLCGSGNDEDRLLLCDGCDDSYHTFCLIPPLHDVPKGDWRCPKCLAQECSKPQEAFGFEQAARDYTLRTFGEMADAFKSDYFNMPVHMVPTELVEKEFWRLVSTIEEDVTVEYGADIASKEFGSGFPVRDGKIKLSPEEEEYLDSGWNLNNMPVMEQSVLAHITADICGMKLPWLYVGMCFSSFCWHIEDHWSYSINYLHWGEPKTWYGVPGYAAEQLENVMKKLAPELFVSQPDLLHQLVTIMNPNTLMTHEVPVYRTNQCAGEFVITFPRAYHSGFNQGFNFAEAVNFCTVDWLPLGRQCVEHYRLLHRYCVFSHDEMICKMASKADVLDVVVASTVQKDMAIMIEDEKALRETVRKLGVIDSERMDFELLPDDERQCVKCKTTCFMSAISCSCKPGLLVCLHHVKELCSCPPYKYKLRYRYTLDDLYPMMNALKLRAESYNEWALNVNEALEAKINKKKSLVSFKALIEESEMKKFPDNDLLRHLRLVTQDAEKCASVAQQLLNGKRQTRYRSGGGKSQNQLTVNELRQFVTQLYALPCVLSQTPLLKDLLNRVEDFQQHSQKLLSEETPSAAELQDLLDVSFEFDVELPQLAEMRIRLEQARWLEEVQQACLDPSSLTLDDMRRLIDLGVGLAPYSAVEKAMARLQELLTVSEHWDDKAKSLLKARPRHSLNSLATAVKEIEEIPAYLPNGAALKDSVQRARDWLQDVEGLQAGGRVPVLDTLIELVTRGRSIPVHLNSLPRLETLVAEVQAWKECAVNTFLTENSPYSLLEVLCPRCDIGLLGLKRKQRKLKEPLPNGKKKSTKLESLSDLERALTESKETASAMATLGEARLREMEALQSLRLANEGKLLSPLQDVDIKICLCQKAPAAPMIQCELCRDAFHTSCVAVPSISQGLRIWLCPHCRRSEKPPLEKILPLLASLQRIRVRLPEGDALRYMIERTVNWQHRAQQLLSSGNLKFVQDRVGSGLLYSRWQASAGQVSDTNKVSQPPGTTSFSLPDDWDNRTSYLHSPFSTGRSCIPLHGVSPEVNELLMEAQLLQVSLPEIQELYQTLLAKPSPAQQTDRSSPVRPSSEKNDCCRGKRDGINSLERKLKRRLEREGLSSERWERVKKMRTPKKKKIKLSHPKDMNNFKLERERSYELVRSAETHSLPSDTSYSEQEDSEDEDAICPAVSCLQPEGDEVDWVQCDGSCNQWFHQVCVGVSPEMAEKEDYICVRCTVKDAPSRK
Assay: Optimization screen for KDM5B Histone Demethylases FDH coupled qHTS against the LOPAC library (AID 1347166); also: 0% is about no effect
Conditions: KDM5B demethylation, FDH-coupled NADH fluorescence (FDH is formaldehyde dehydrogenase); at 57.5 µM (top of the series)
Inconclusive results are not listed. Activity calls are given as the source filed them. Calls come from the whole dose curve; as a rule, active = well fitted inhibition curve with a large enough effect; inconclusive = small, poorly fitted or top-dose-only effect; inactive = flat fitted curve, though single readings scatter.
Labels: active, inactive

# compound, classLabel
measured = [
    ("N[C@@H](Cc1ccc(F)cc1)C(=O)O", "inactive"),
    ("CSc1nc(N)c2ncn([C@@H]3O[C@H](COP(=O)(O)OP(=O)(O)O)C(O)[C@H]3O)c2n1 (some centres undefined)", "inactive"),
    ("NCCCCN", "inactive"),
    ("Nc1ncnc2c1ncn2C1CCCO1 (centres undefined)", "inactive"),
    ("CC(=O)O[C@H]1Cc2ccccc2N(C(N)=O)c2ccccc21", "inactive"),
    ("CC1C(=O)N(C)C(=O)c2nc[nH]c21 (centres undefined)", "inactive"),
    ("c1ccc(CN2CCC3(CCCc4ccccc43)CC2)cc1", "inactive"),
    ("Cc1nc(N=Nc2ccc(S(=O)(=O)O)cc2S(=O)(=O)O)c(COP(=O)(O)O)c(C=O)c1O", "inactive"),
    ("CCN(c1nc(N)c(C(=O)N=C(N)N)nc1Cl)C(C)C", "inactive"),
    ("N=C(N)c1ccc(N)cc1", "inactive"),
    ("Cc1cccc(C)c1OCC(N)C(C)C (centres undefined)", "inactive"),
    ("Clc1nccc2c1ccc1ccccc12", "inactive"),
    ("O=C(O)c1cccnc1C(=O)O", "inactive"),
    ("OC1(c2ccc(Cl)cc2)CCN(Cc2c[nH]c3ccccc23)CC1", "inactive"),
    ("CCCCOc1cc(CC2CNC(=O)N2)ccc1OC (centres undefined)", "inactive"),
    ("CC(=O)NCCc1c[nH]c2ccc(O)cc12", "inactive"),
    ("Nc1ncnc2c1nc(Sc1ccc(Cl)cc1)n2[C@H]1OC2COP(=O)(O)O[C@@H]2C1O (some centres undefined)", "inactive"),
    ("NC1C=CC=C(C(=O)O)C1 (centres undefined)", "inactive"),
    ("CCCCCCC(=O)OC1CC(C)(C)NC(C)(C)C1", "inactive"),
    ("CC(=O)[C@H]1CCC2C3CC=C4C[C@@H](OS(=O)(=O)O)CC[C@]4(C)C3CC[C@@]21C (some centres undefined)", "inactive"),
    ("O=C1Cc2c([nH]c3ccc(Br)cc23)-c2ccccc2N1", "inactive"),
    ("c1ccc2c(c1)CC(N1CCN(c3cccc4c3OCCO4)CC1)C2", "inactive"),
    ("CCCC[C@@]1(C2CCCC2)Cc2cc(OCC(=O)O)c(Cl)c(Cl)c2C1=O", "inactive"),
    ("COc1ccc2c(c1)CCC1C2CC[C@@]2(C)C1CC[C@@H]2NCCCCCCN1C(=O)C=CC1=O (some centres undefined)", "inactive"),
    ("O=C(OCCN1CCOCC1)C1(c2ccccc2)CCCCC1", "inactive"),
    ("NC(=O)CNCCC(c1ccccc1)c1ccccc1", "inactive"),
    ("CCCN(CCc1ccccc1)C1CCc2c(O)cccc2C1 (centres undefined)", "inactive"),
    ("CC(=O)NNC(=O)N1Cc2ccccc2Oc2ccc(Cl)cc21", "inactive"),
    ("O=S(=O)(c1cccc2c(Cl)cccc12)N1CCCNCC1", "inactive"),
    ("C=CCn1c(=O)c2c(nc(-c3ccc(S(=O)(=O)O)cc3)n2C)n(C)c1=O", "active"),
    ("NCC(O)C1CCCCCCC1 (centres undefined)", "inactive"),
    ("CC(C)[C@@H]1CC[C@@H](C)C[C@@H]1P(=O)(c1ccccc1)c1ccccc1", "inactive"),
    ("CCCCCC[C@@H]([C@@H](C)O)n1cnc2c(N)ncnc21", "inactive"),
    ("CC#CCOC(=O)c1c(C)nc2sc3c(c2c1N)CCC(O)C3 (centres undefined)", "inactive"),
    ("CC[n+]1c(/C=C/C=C2/N(C)c3ccccc3C2(C)C)sc2ccccc21", "inactive"),
    ("O=C(c1ccc2c(c1)OCCO2)N1CCCCC1", "inactive"),
    ("O=C(O)C1=CCCNC1", "inactive"),
    ("CC(C)NCC(O)COc1ccc(CC(N)=O)cc1 (centres undefined)", "inactive"),
    ("CC(C)NC[C@H](O)COc1cccc2ccccc12", "inactive"),
    ("CCCn1c(=O)c2c(ncn2C)n(CCC)c1=O", "inactive"),
    ("O=C(O)C1=CCNCC1", "inactive"),
    ("C=CCNc1ncnc2ccc(Br)cc12", "inactive"),
    ("C[C@@H](NCCc1ccc(O)cc1)[C@@H](O)c1ccc(O)cc1", "inactive"),
    ("O=[N+]([O-])c1cccc2cn[nH]c12", "inactive"),
    ("Cc1ccccc1/C=C/C1=NCCN1", "inactive"),
    ("COC(=O)C1=C(C)NC(C)=C([N+](=O)[O-])C1c1ccccc1C(F)(F)F (centres undefined)", "inactive"),
    ("COC(=O)C(C)(N)Cc1ccc(O)cc1 (centres undefined)", "inactive"),
    ("Cc1nc(N=Nc2cc(S(=O)(=O)O)c3cc([N+](=O)[O-])cc(S(=O)(=O)O)c3c2)c(COP(=O)(O)O)c(C=O)c1O", "inactive"),
    ("COc1ccc(NC(=O)c2ccc(-c3ccc(-c4noc(C)n4)cc3C)cc2)cc1N1CCN(C)CC1", "inactive"),
]
